- TESTED_SYSTEM: PI3Kα H1047R (T47D cells) (Homo sapiens, UniProt P42336, H1047R)
- Construct: endogenous in cells; host or cells: T47D cells
- Sequence (P42336 whole entry H1047R): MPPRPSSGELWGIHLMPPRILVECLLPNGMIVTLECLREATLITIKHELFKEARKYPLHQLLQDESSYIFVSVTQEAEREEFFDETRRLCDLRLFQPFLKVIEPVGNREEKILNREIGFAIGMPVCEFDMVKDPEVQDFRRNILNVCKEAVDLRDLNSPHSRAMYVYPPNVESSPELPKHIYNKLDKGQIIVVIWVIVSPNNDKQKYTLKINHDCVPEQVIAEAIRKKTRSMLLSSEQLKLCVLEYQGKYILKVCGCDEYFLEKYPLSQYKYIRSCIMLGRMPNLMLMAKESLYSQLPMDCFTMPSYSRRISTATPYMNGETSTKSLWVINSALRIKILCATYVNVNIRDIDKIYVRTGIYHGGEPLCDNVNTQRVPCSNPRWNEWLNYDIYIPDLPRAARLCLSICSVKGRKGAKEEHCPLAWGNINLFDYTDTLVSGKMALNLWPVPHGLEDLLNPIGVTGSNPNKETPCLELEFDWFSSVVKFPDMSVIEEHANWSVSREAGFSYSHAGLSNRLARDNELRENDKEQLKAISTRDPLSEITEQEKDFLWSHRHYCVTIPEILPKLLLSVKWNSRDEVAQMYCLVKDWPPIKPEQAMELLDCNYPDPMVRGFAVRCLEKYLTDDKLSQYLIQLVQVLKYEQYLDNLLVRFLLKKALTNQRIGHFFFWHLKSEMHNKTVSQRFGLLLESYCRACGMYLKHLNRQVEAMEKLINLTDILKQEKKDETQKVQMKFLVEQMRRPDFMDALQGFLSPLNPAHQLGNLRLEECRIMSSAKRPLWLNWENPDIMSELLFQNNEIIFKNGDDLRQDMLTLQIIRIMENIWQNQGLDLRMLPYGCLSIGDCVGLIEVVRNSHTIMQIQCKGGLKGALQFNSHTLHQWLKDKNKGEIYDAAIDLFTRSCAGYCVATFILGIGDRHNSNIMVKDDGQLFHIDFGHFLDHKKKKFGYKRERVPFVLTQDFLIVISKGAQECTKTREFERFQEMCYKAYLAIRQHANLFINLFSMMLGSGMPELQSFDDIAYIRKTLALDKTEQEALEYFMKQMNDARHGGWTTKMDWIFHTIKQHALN
- Sequence (P27986 whole entry partner): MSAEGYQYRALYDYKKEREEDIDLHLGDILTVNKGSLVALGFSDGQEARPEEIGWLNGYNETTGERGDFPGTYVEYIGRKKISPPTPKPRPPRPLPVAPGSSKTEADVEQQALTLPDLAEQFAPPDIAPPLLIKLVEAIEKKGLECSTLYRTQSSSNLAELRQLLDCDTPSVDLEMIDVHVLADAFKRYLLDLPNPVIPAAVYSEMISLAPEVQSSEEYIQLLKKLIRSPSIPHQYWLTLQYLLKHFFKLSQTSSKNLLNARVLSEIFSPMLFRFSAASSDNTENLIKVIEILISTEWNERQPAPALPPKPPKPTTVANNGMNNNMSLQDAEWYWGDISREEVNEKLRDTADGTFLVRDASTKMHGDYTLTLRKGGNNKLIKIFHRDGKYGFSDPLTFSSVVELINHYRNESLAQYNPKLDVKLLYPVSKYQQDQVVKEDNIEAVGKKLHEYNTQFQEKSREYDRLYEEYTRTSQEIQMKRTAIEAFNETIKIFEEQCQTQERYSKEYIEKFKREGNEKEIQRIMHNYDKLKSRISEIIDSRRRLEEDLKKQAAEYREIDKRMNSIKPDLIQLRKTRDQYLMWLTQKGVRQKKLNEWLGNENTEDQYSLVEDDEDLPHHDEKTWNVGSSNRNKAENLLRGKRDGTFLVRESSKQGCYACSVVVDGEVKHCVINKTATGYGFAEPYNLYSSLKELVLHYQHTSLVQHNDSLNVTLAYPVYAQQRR
- ASSAY: PI3Kα cellular assay: pAKT HTRF in T47D cells after EGF stimulation
- Type: cell-based
- RECORDED_CONDITIONS: selectivity T47D (H1047R) over SKBR3 (WT), pAKT HTRF
ATTRIBUTE_MEASURED: T47D pAKT S473 HTRF IC50 (H1047R): T47D (H1047R) selectivity over SKBR3 (WT)

// solved cases for T47D pAKT S473 HTRF IC50 (H1047R): T47D (H1047R) selectivity over SKBR3 (WT) follow
• Cc1cc(C(C)NC2=CC=CCC2C(=O)O)c2nc(Cc3cccc(C4=CCCC=C4)c3)c(C)c(=O)n2c1 (centres unmarked) [Compound 300] = C (C denotes ≤5-fold)
• Cc1cc([C@H](C)Nc2ccccc2C(=O)O)c2nc(-c3cc(C)c4[nH]c(=O)[nH]c4c3)cc(=O)n2c1 [Compound 498] = C (C denotes ≤5-fold)
• Cc1cc([C@H](C)Nc2ccccc2-c2ccnnc2)c2cc([C@H]3CCCOC3)c(C)c(=O)n2c1 [Compound 1406] = A (A denotes >20-fold)
• Cc1cc([C@H](C)Nc2ccccc2C(=O)O)c2nc(N3CCC(C)(C)CC3)cc(=O)n2c1 [Compound 432] = C (C denotes ≤5-fold)
• Cc1cc([C@@H](C)Nc2ccccc2C(=O)O)c2nc(C3CCOCC3)cc(=O)n2c1 [Compound 316] = C (C denotes ≤5-fold)

Identify measured T47D pAKT S473 HTRF IC50 (H1047R): T47D (H1047R) selectivity over SKBR3 (WT) corresponding to CC(=O)Oc1nc2ccc(-c3cc(=O)n4cc(C)cc([C@H](C)Nc5ccccc5C(=O)O)c4n3)cn2n1 [Compound 518]
C (C denotes ≤5-fold)

Give recorded T47D pAKT S473 HTRF IC50 (H1047R): T47D (H1047R) selectivity over SKBR3 (WT). Cc1cc(C(C)Nc2ccccc2C(=O)O)c2nc(-c3cc(F)cc(C#N)c3)c(C)c(=O)n2c1 (centres unmarked) [Compound 1103]
A (A denotes >20-fold)
